System: human PKK mRNA
Test: Dose-dependent antisense inhibition of human PKK in HepaRG cells, 0.19-5.00 uM (Example 5)
Assay type: cell-based
Settings: HepaRG cells, 0.56 μM antisense oligonucleotide
Strand notation (5' to 3'): a small letter for the sugar, then the base; units joined by * are phosphorothioate-linked, units joined directly phosphodiester-linked; [ ] holds rarer units or linkages, { } end groups; capitals alone tell only the bases. e = 2'-O-(2-methoxyethyl) (MOE); [5mC] = 5-methylcytosine; d = 2'-deoxy (DNA)
MEASUREMENT KIND: percent inhibition of PKK mRNA, 0.56 μM (%)
Answers are plain numbers, in %.

Required: percent inhibition of PKK mRNA, 0.56 μM, one value per substance below.
1. 546870 (e[5mC]*eT*eG*eT*eA*d[5mC]*d[5mC]*dT*dA*dT*dA*dA*d[5mC]*dT*d[5mC]*eT*eA*eA*e[5mC]*eA; antisense) [compound 546870]
2. 547293 (antisense e[5mC]*eA*eT*e[5mC]*eT*dG*dG*d[5mC]*dA*dG*dT*dA*dT*dT*dG*eG*eG*e[5mC]*eA*eT) [compound 547293]

[34, 45]

Required: percent inhibition of PKK mRNA, 0.56 μM, one value per substance below.
1. 547294 (antisense e[5mC]*eT*e[5mC]*eA*eT*d[5mC]*dT*dG*dG*d[5mC]*dA*dG*dT*dA*dT*eT*eG*eG*eG*e[5mC]) [compound 547294]
2. 548770 (antisense eT*eA*eA*e[5mC]*dA*dG*dT*dA*dT*d[5mC]*dA*d[5mC]*dT*eG*eT*e[5mC]*e[5mC]) [compound 548770]
3. 547617 (antisense e[5mC]*eT*eG*eT*e[5mC]*d[5mC]*dT*dA*dT*dA*dT*d[5mC]*dA*d[5mC]*dT*eG*eT*eA*e[5mC]*e[5mC]) [compound 547617]

1. 70
2. 0
3. 37

---

Tested on: human PKK mRNA
Experiment: Dose-dependent antisense inhibition of human PKK in HepaRG cells, 0.11-3.00 uM (Example 6)
Format: cell-based
Conditions: electroporation, 3.00 μM, approx. 16 hours, relative to untreated control cells
Strand notation (5' to 3'): a small letter for the sugar, then the base; units joined by * are phosphorothioate-linked, units joined directly phosphodiester-linked; [ ] holds rarer units or linkages, { } end groups; capitals alone tell only the bases. e = 2'-O-(2-methoxyethyl) (MOE); k = constrained ethyl (cEt); [5mC] = 5-methylcytosine; d = 2'-deoxy (DNA)
Assignment: determine reported percent inhibition of PKK mRNA, 3.00 μM for the given substances.
Put your answer as a value accompanied by its unit after it.

Sample records with percent inhibition of PKK mRNA, 3.00 μM:
* 548424 (antisense e[5mC]*eA*kG*dT*dA*dT*d[5mC]*dA*d[5mC]*dT*dG*dT*d[5mC]*k[5mC]*kT*eA) [compound 548424] | 72%
* 548655 (antisense e[5mC]*e[5mC]*k[5mC]*dG*dA*dG*dG*dT*d[5mC]*dA*d[5mC]*dA*dT*kA*kA*eT) [compound 548655] | 33%
* 548043 (eA*eT*kT*dT*dG*dT*dG*dA*dG*dA*dA*dA*dG*kG*kT*eG; antisense) [compound 548043] | 92%
* 548005 (eA*eG*kA*dG*dT*dA*dA*d[5mC]*d[5mC]*dA*dG*dA*dG*k[5mC]*kT*e[5mC]; antisense) [compound 548005] | 95%

Required: percent inhibition of PKK mRNA, 3.00 μM, one value per substance below.
1. 548106 (antisense e[5mC]*e[5mC]*kA*dT*dG*dT*dA*d[5mC]*dT*d[5mC]*dA*dG*d[5mC]*kG*kA*e[5mC]) [compound 548106]
2. 548197 (eT*eG*k[5mC]*dT*dT*dG*dG*d[5mC]*dT*dT*d[5mC]*dA*dA*kT*kA*eT; antisense) [compound 548197]
3. 548217 (e[5mC]*eT*kG*dT*dG*d[5mC]*dA*dT*dA*dG*dA*d[5mC]*d[5mC]*k[5mC]*k[5mC]*eA; antisense) [compound 548217]
4. 548668 (antisense eG*eG*kG*dA*dG*d[5mC]*dT*dT*dT*d[5mC]*dA*dT*dG*kG*k[5mC]*eT) [compound 548668]
5. 547835 (e[5mC]*e[5mC]*kA*dG*dA*dA*dA*d[5mC]*dT*dG*d[5mC]*dA*d[5mC]*k[5mC]*kT*eG; antisense) [compound 547835]
6. 547870 (antisense e[5mC]*eT*kA*dA*d[5mC]*d[5mC]*dT*dT*dA*dG*dA*d[5mC]*dA*k[5mC]*kA*eT) [compound 547870]

["94%", "75%", "71%", "84%", "79%", "97%"]

Required: percent inhibition of PKK mRNA, 3.00 μM, one value per substance below.
1. 548425 (antisense eA*eA*k[5mC]*dA*dG*dT*dA*dT*d[5mC]*dA*d[5mC]*dT*dG*kT*k[5mC]*e[5mC]) [compound 548425]
2. 548479 (eA*eG*kG*d[5mC]*d[5mC]*dA*dT*dT*dT*dG*dA*dT*d[5mC]*k[5mC]*kG*eA; antisense) [compound 548479]
3. 547922 (eT*eG*kG*dA*dG*dT*dG*dA*dG*dA*dA*d[5mC]*d[5mC]*k[5mC]*kT*eG; antisense) [compound 547922]
4. 548125 (antisense e[5mC]*eT*kA*dG*dA*d[5mC]*dT*d[5mC]*dT*dG*dG*dA*d[5mC]*kT*kG*e[5mC]) [compound 548125]
5. 548557 (antisense eG*eT*kT*dA*d[5mC]*dT*d[5mC]*dT*dG*dT*dG*dA*dT*k[5mC]*k[5mC]*eA) [compound 548557]

["80%", "97%", "92%", "73%", "95%"]

Required: percent inhibition of PKK mRNA, 3.00 μM, one value per substance below.
1. 547859 (antisense e[5mC]*e[5mC]*kT*d[5mC]*dT*d[5mC]*dA*dT*dA*dT*d[5mC]*dA*dA*k[5mC]*kT*e[5mC]) [compound 547859]
2. 548667 (antisense eT*eG*kG*d[5mC]*dA*dA*dG*d[5mC]*dT*dA*d[5mC]*d[5mC]*dT*kT*k[5mC]*eT) [compound 548667]
3. 548410 (antisense eA*eG*kT*dA*dT*d[5mC]*dA*d[5mC]*dT*dG*dT*dA*d[5mC]*kT*kA*eG) [compound 548410]
4. 548247 (antisense e[5mC]*eG*kA*dT*dT*dT*dT*d[5mC]*d[5mC]*dA*dT*dG*d[5mC]*kA*kT*eA) [compound 548247]
5. 548004 (eA*eG*kT*dA*dA*d[5mC]*d[5mC]*dA*dG*dA*dG*d[5mC]*dT*k[5mC]*k[5mC]*e[5mC]; antisense) [compound 548004]
6. 548583 (eG*eG*kG*dA*dA*dT*dT*dT*dA*dT*dG*d[5mC]*dT*kG*k[5mC]*e[5mC]; antisense) [compound 548583]
7. 548201 (eT*eG*kT*dT*d[5mC]*dT*dA*dA*dT*dG*dT*dG*dG*k[5mC]*kA*e[5mC]; antisense) [compound 548201]
8. 548220 (eG*e[5mC]*kA*dG*dA*dA*dA*dT*d[5mC]*d[5mC]*dT*dG*dT*kG*k[5mC]*eA; antisense) [compound 548220]

1: 78%; 2: 86%; 3: 82%; 4: 82%; 5: 92%; 6: 88%; 7: 85%; 8: 6%

What does the record list as percent inhibition of PKK mRNA, 3.00 μM for 548070 (e[5mC]*e[5mC]*k[5mC]*dA*dA*d[5mC]*dA*dG*dT*dT*dG*dG*dT*kA*kT*eA; antisense) [compound 548070] ?
63%
